# system under test: Nuclear receptor subfamily 1 group I member 2 (Homo sapiens)
# protocol text: Human pregnane X receptor (PXR) small molecule agonists, qHTS assay (AID 1346982); note: nearly all actives have a fitted effect of over 35% in size; for activation: % is set by controls: 0 for no effect and ±100 for the full control effect
# condition parameters: PXR-Luc HepG2, CYP3A4 luciferase reporter, 24 h; series mostly up to 92.4 µM
# From the text: National Center for Advancing Translational Sciences [NCATS] NIH Chemical Genomics Center [NCGC] U.S. Environmental Protection Agency [EPA] National Institutes of Environmental Health Sciences [NIEHS] National Toxicology Program [NTP] The human pregnane X receptor (hPXR) regulates the expression of several drug metabolizing enzymes and induction of these proteins is a major mechanism for developing drug resistance in cancer. […]
Records with an inconclusive call do not appear. Calls of active or inactive are those of the source. Calls come from the whole dose curve; as a rule, active = well fitted activation curve with a large enough effect in the repeat runs; inconclusive = weak or mixed curves; inactive = no such curve, though single readings can be large or run the other way.
Possible outcomes: active, inactive

> print(dat)
                                    compound                         system.under.test     class
 1                          CCCCCCCCCCCCCCCO  Nuclear receptor subfamily 1 group I member 2 (Homo sapiens)  inactive
 2                        CC(=O)Nc1cccc(O)c1  Nuclear receptor subfamily 1 group I member 2 (Homo sapiens)  inactive
 3  CC(C)(C)[C@@H](O)[C@@H](Cc1ccc(Cl)cc1)n1cncn1  Nuclear receptor subfamily 1 group I member 2 (Homo sapiens)    active
 4  C#C[C@]1(O)CC[C@H]2[C@@H]3CCC4=CC(=O)CC[C@@H]4[C@H]3CC[C@@]21C  Nuclear receptor subfamily 1 group I member 2 (Homo sapiens)    active
 5                              Cc1cccc(O)c1  Nuclear receptor subfamily 1 group I member 2 (Homo sapiens)  inactive
 6  O=C(O)CC(C(=O)O)C(CC(=O)O)C(=O)O (centres undefined)  Nuclear receptor subfamily 1 group I member 2 (Homo sapiens)  inactive
 7     CC1=CCC2CC1C2(C)C (centres undefined)  Nuclear receptor subfamily 1 group I member 2 (Homo sapiens)  inactive
 8  CCCCC(CC)COC(=O)CCCCC(=O)OCC(CC)CCCC (centres undefined)  Nuclear receptor subfamily 1 group I member 2 (Homo sapiens)  inactive
 9                             c1ccc2scnc2c1  Nuclear receptor subfamily 1 group I member 2 (Homo sapiens)  inactive
10               CC1=C(C)S(=O)(=O)CCS1(=O)=O  Nuclear receptor subfamily 1 group I member 2 (Homo sapiens)  inactive
11                  CCCCCC/C(C=O)=C\c1ccccc1  Nuclear receptor subfamily 1 group I member 2 (Homo sapiens)  inactive
12                           CC(=O)Nc1ccccc1  Nuclear receptor subfamily 1 group I member 2 (Homo sapiens)  inactive
13  O=C(O)[C@H](O)[C@@H](O)[C@H](O)[C@H](O)CO  Nuclear receptor subfamily 1 group I member 2 (Homo sapiens)  inactive
14           O=c1[nH]c(=O)n([C@H]2CCCO2)cc1F  Nuclear receptor subfamily 1 group I member 2 (Homo sapiens)  inactive

* * *

# protocol text: qHTS RealTime-Glo MT Cell Viability Assay in HEK293 cells - 32 hour (AID 1224868); note: top concentration of the series differs between compounds; % is set by controls: 0 for no effect and ±100 for the full control effect; nearly all actives have a fitted effect of over 50% in size
# condition parameters: RealTime-Glo luminescence; series mostly up to 76.8 µM
# Description: National Center for Advancing Translational Sciences [NCATS] NIH Chemical Genomics Center [NCGC] U.S. Environmental Protection Agency [EPA] National Institutes of Environmental Health Sciences [NIEHS] National Toxicology Program [NTP] U.S. Food and Drug Administration [FDA] Measure of cell viability is critical in the cell-base assay. Analysis of cell viability is necessary for the characterization of cell responses to cytotoxic drugs and environmental stress. […]
Records with an inconclusive call do not appear. Active and inactive are the calls of the source. Calls follow the shape of the dose curve; as a rule, active = well fitted cell-killing curve with a large enough effect in the repeat runs; inconclusive = weak or mixed curves, or effect the other way; inactive = flat fitted curve, though single readings scatter.
assay readout: activity change, negative = cytotoxic

> print(dat)
                                    molecule                          assay.readout  recorded.result
 1  CCCCCCCCC/C=C/CC1CC(=O)OC1=O (stereo not drawn)  activity change, negative = cytotoxic         inactive
 2  O=C(O)c1cc(=O)c2c(OCC(O)COc3cccc4oc(C(=O)O)cc(=O)c34)cccc2o1  activity change, negative = cytotoxic         inactive
 3                        CC(=O)Nc1cccc(O)c1  activity change, negative = cytotoxic         inactive
 4                           CCCCCCCCCCCCCCO  activity change, negative = cytotoxic         inactive
 5   O=C(O)c1ccccc1C(c1ccc(O)cc1)c1ccc(O)cc1  activity change, negative = cytotoxic         inactive
 6  O=C(O)CCCC[C@@H]1SC[C@@H]2NC(=O)N[C@@H]21  activity change, negative = cytotoxic         inactive
 7                                 Cc1cccnc1  activity change, negative = cytotoxic         inactive
 8  O=c1[nH]c(=O)n([C@H]2C[C@H](O)[C@@H](CO)O2)cc1Br  activity change, negative = cytotoxic         inactive
 9                              COS(C)(=O)=O  activity change, negative = cytotoxic         inactive
10                              CCCCCOC(C)=O  activity change, negative = cytotoxic         inactive
11  N[C@@H](Cc1cc(I)c(Oc2cc(I)c(O)c(I)c2)c(I)c1)C(=O)O  activity change, negative = cytotoxic         inactive
12  CCc1ccc(CCOc2ccc(CC3SC(=O)NC3=O)cc2)nc1 (stereo not drawn)  activity change, negative = cytotoxic         inactive
13                         C#CCN(C)Cc1ccccc1  activity change, negative = cytotoxic         inactive

* * *

# protocol text: qHTS assay to identify small molecule phospholipidosis (PLD) inducers (AID 1259344); note: % is set by controls: 0 for no effect and ±100 for the full control effect
# condition parameters: HepG2 phospholipidosis, LipidTOX Red imaging, 24 h; series mostly up to 38.3 µM
# Method: National Center for Advancing Translational Sciences [NCATS] Drug-induced Phospholipidosis (PLD) caused by cationic amphiphilic drugs is characterized by the appearance of unicentric or multicentric-lamellar bodies when viewed under electron microscope. […] Drug induced phospholipid accumulation is stained with the LipidTox dyes in red color which then is determined using an automated high content screening system. […]
Inconclusive results are not listed. Activity calls are given as the source filed them. Calls come from the whole dose curve; as a rule, active = well fitted activation curve with a large enough effect; inconclusive = small, poorly fitted or top-dose-only effect; inactive = flat fitted curve, though single readings scatter.
assay readout: PLD induction

> print(dat)
                                   compound  assay.readout                 recorded.result
1                                OCCOCCOCCO  PLD induction                        inactive
2  CC[C@H](C)C(=O)O[C@H]1C[C@@H](C)C=C2C=C[C@H](C)[C@H](CC[C@@H]3C[C@@H](O)CC(=O)O3)[C@H]21  PLD induction                        inactive
3  CCCCC(CC)COC(=O)C(C#N)=C(c1ccccc1)c1ccccc1 (stereo unspecified)  PLD induction                        inactive
4           COc1cc(Cc2cnc(N)nc2N)cc(OC)c1OC  PLD induction                        inactive
5                  CCOC(=O)NNc1nncc2ccccc12  PLD induction  -1.23% [at 7.66 µM] (inactive)
6                        CC(=O)Nc1cccc(O)c1  PLD induction                        inactive

* * *

# system under test: Nuclear receptor subfamily 1 group I member 2 (Homo sapiens) (UniProt O75469)
# Sequence (O75469 whole entry, looked up): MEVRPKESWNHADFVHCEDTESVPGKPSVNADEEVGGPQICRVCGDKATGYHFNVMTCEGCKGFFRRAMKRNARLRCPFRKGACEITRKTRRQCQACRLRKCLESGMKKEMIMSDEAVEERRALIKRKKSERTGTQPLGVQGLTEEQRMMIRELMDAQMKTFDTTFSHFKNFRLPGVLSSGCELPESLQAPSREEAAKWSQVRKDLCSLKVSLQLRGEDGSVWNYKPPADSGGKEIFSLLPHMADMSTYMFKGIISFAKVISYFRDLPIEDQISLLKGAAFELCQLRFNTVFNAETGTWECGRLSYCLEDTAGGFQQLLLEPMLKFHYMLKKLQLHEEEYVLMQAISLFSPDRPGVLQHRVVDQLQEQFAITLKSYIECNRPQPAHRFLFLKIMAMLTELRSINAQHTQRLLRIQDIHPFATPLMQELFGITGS
# protocol text: CYP3A4 induction through human pregnane X receptor (PXR) by small molecules, qHTS assay (AID 1346984); note: % is set by controls: 0 for no effect and ±100 for the full control effect; nearly all actives have a fitted effect of over 40% in size
# condition parameters: DPX-2 HepG2 PXR, CYP3A4-luciferin luminescence, 24 h; series mostly up to 46.1 µM
# From the text: National Center for Advancing Translational Sciences [NCATS] NIH Chemical Genomics Center [NCGC] U.S. Environmental Protection Agency [EPA] National Institutes of Environmental Health Sciences [NIEHS] National Toxicology Program [NTP] The Pregnane X receptor (PXR), a ligand activated nuclear receptor plays a critical role in the regulation of genes involved in drug metabolism and transporters. Activation of PXR is responsible for unwanted adverse drug reactions. […]
Results filed as inconclusive are left out. The source made the active and inactive calls. Calls come from the whole dose curve; as a rule, active = well fitted activation curve with a large enough effect in the repeat runs; inconclusive = weak or mixed curves; inactive = no such curve, though single readings can be large or run the other way.
assay readout: outcome

> print(dat)
                                   molecule                         system.under.test  recorded.result
1  CC1=CCC2CC1C2(C)C (configuration not stated)  Nuclear receptor subfamily 1 group I member 2 (Homo sapiens) (UniProt O75469)         inactive
2  O=c1[nH]c(=O)n([C@H]2C[C@H](O)[C@@H](CO)O2)cc1Br  Nuclear receptor subfamily 1 group I member 2 (Homo sapiens) (UniProt O75469)         inactive
3                               CCCCCC(N)=O  Nuclear receptor subfamily 1 group I member 2 (Homo sapiens) (UniProt O75469)         inactive
4  O=C(O)[C@H](O)[C@@H](O)[C@H](O)[C@H](O)CO  Nuclear receptor subfamily 1 group I member 2 (Homo sapiens) (UniProt O75469)         inactive
5                               C=CCNC(N)=S  Nuclear receptor subfamily 1 group I member 2 (Homo sapiens) (UniProt O75469)         inactive
6  OC[C@H]1O[C@@](CO)(O[C@H]2O[C@H](CO)[C@@H](O)[C@H](O)[C@H]2O)[C@@H](O)[C@@H]1O  Nuclear receptor subfamily 1 group I member 2 (Homo sapiens) (UniProt O75469)         inactive
7                                OCCOCCOCCO  Nuclear receptor subfamily 1 group I member 2 (Homo sapiens) (UniProt O75469)         inactive
